- Tested on: MDA-MB-231 breast
- assay_method_text: NCI tumour cell line growth inhibition, 48 h; in the data active = GI50 below about 0.43 µM; inactive = the rest
Choose the fitting class; nothing outside 1.0 (active), 0.0 (inactive) is accepted.

CN1CCN(C(=O)[C@@]2(C)CC[C@]3(C)CC[C@]4(C)C(=CC[C@@H]5[C@@]6(C)CCC(=O)NC(C)(C)[C@@H]6CC[C@]54C)[C@@H]3C2)CC1
0.0
Oc1c(C(Nc2ccccn2)c2cccc(Oc3ccccc3)c2)ccc2cccnc12 (stereo not drawn)
0.0
COc1cc2c3c(n(CCCN(CCCN(CCCn4c5c(c6ccccc6c4=O)C(=O)c4ccccc4-5)C(=O)OC(C)(C)C)C(=O)OC(C)(C)C)c(=O)c2cc1OC)-c1cc2c(cc1C3=O)OCO2
0.0
NC(=O)c1cccc2c(N[C@H](CN3CCC3)c3ccc(Cl)c(C(F)(F)F)c3)ncnc12
0.0
O=C1/C(=C/c2ccc([N+](=O)[O-])s2)Oc2cc(Cl)ccc21
1.0
Cc1ccc(C)c2c1C(=O)N(c1ccc(F)cc1F)C2=O
0.0
CN1CCN(Cc2ccc(NC(=O)c3cncc(C#Cc4c(N)ncc5ccc(C#N)cc45)c3)cc2C(F)(F)F)CC1
0.0

# input for lookup
Please indicate how the test categorized CCn1c(-c2nonc2N)nc2c(C#CC(C)(C)O)ncc(OC3CCNCC3)c21 . 0.0
